Kindly state normalized GFP fluorescence for each of the entries shown.
System: Staphylococcus aureus MW2 delta-mecA (mecA-)
Assay: normalized GFP fluorescence (growth of mecA- strain) (fraction of control range); higher = more growth of mecA- strain
Conditions: compound concentration: 150 uM; cefoxitin: subinhibitory; fluorescent label: GFP
// no unit, no text: just the number

// normalized GFP fluorescence value for CNC(C)C1CCC(N)C(OC2C(N)CC(N)C(OC3OCC(C)(O)C(NC)C3O)C2O)O1 (stereo not given) : 0.397

// normalized GFP fluorescence value for `N#C[C@@H]1C[C@@H]2C[C@@H]2N1C(=O)[C@@H](N)C12CC3CC(CC(O)(C3)C1)C2` : 0.824

// normalized GFP fluorescence value for `CCc1cn([C@H]2C[C@H](O)[C@@H](CO)O2)c(=O)[nH]c1=O` : 0.343

// normalized GFP fluorescence value for `CCOC(=O)C1=C[C@]2(CC)CCCN3CCc4c(n1c1ccccc41)[C@@H]32` : 0.593

// normalized GFP fluorescence value for `Nc1ncnc2c1ncn2[C@@H]1O[C@H](CO)[C@@H](O)[C@@H]1O` : 0.428
